Taken from patent US20030161787A1.

- System: three-day old zebrafish larvae
- MEASUREMENT NOTES: Induction of arrhythmic heart beat in three-day old zebrafish larvae by arrhythmia-inducing drugs
- TEST SETTINGS: low doses in medium; anaesthetized larvae, dissecting microscope
TEST READOUT: larvae with induced arrhythmic heart beat

# input Can you look up the measured larvae with induced arrhythmic heart beat of CSc1ccc2c(c1)N(CCC1CCCCN1C)c1ccccc1S2 (stereo not drawn) for me?
# output ~100 % of larvae

# input Quick check: larvae with induced arrhythmic heart beat of COc1cc(N)c(Cl)cc1C(=O)NC1CCN(CCCOc2ccc(F)cc2)CC1OC (stereo not drawn) [cisapride] ?
# output ~100 % of larvae

# input For the compound shown here, O=C(CCCN1CC=C(n2c(=O)[nH]c3ccccc32)CC1)c1ccc(F)cc1 , give the reported larvae with induced arrhythmic heart beat.
# output ~100 % of larvae
